Origin of values: patent US8129371B2

Reported pIC50 values for a set of compounds
# tgt: Human mTOR (FLAG-TOR) (Homo sapiens)
# Construct: FLAG
# assayName: Human mTOR kinase assay with purified enzyme, DELFIA format
# Assay type: biochemical
In simple prose, pIC50 is minus the logarithm base ten of a concentration in moles per litre.

# annotated cases, reported pIC50 shown
O=C1OCCN1c1ccc(-c2nc(N3CC4CCC(C3)O4)c3cnn(C4CCC5(CC4)OCCO5)c3n2)cc1 [Example 131] :: 6.20
CN(C)c1cccc(OC(=O)Nc2ccc(-c3nc(N4CC5CCC(C4)O5)c4cnn(CC(F)(F)F)c4n3)cc2)c1 [Example 256] :: 6.71
CC(C)C(=O)N1CCC(n2ncc3c(N4CC5CCC(C4)O5)nc(-c4ccc(NC(=O)NCCO)cc4)nc32)CC1 [Example 84] :: 9.25
O=C(Nc1ccc(-c2nc(N3C4CCC3COC4)c3cnn(CC(F)(F)F)c3n2)cc1)Nc1ccc(N2CCOCC2)nc1 [Example 274] :: 9.61
COCCOC(=O)Nc1ccc(-c2nc(N3CC4CCC(C3)O4)c3cnn(C4CCN(C(=O)OC)CC4)c3n2)cc1 [Example 113] :: 6.65
Cn1ncc2c(N3CC4CCC(C3)O4)nc(-c3ccc(NC(=O)Nc4ccc(N5CCOCC5)cc4)cc3)nc21 [Example 238] :: 9.61
CCn1ncc2c(N3CC4CCC(C3)O4)nc(-c3ccc(NC(=O)Nc4ccc(N5CCN(C)CC5)nc4)cc3)nc21 [Example 185] :: 9.13
CCOC(=O)Nc1ccc(-c2nc(N3CC4CCC(C3)O4)c3cnn(CCO)c3n2)cc1 [Example 208] :: 8.09

According to the records, this compound CN1CCN(c2ccc(NC(=O)Nc3ccc(-c4nc(N5C[C@@H]6C[C@H]5CO6)c5cnn(CC(F)(F)F)c5n4)cc3)cc2)CC1 [Example 295] displays pIC50 of 8.63

According to the records, this compound CCOC(=O)N1CCC(n2ncc3c(N4CC5CCC(C4)O5)nc(-c4ccc(NC(=O)NC5CCN(C(=O)OC(C)(C)C)CC5)cc4)nc32)CC1 [Example 37] displays pIC50 of 7.43

According to the records, this compound CCn1ncc2c(N3CC4CCC(C3)O4)nc(-c3ccc(NC(=O)Nc4ccc(OC)cc4)cc3)nc21 [Example 187] displays pIC50 of 9.39

----------
# tgt: Human mTOR (FLAG-TOR) (Homo sapiens, UniProt P42345)
# Construct: FLAG
# assayName: Human mTOR kinase assay with purified enzyme, DELFIA format
# Assay type: biochemical
Reported pIC50 values for a set of molecules
In simple prose, pIC50 is minus the logarithm base ten of a concentration in moles per litre.

According to the records, this molecule `CN(C)CCNC(=O)Nc1ccc(-c2nc(N3CC4CCC(C3)O4)c3cnn(C)c3n2)cc1` displays pIC50 of 7.00

According to the records, this molecule `CN(C)c1cccc(NC(=O)Nc2ccc(-c3nc(N4CC5CCC(C4)O5)c4cnn(CC(F)(F)F)c4n3)cc2)c1` displays pIC50 of 8.74

According to the records, this molecule `Cn1ncc2c(N3CC4CCC(C3)O4)nc(-c3ccc(NC(=O)NCCO)cc3)nc21` displays pIC50 of 8.96

According to the records, this molecule `O=C(Nc1ccc(-c2nc(N3CC4CCC(C3)O4)c3cnn(CC(F)(F)F)c3n2)cc1)OCCO` displays pIC50 of 9.22

According to the records, this molecule `CN(C)CCn1ncc2c(N3CC4CCC(C3)O4)nc(-c3ccc(NC(=O)Nc4cccnc4)cc3)nc21` displays pIC50 of 8.57

According to the records, this molecule `CN(C)CCNC(=O)Nc1ccc(-c2nc(N3CC4CCC(C3)O4)c3cnn(C4CCC5(CC4)OCCO5)c3n2)cc1` displays pIC50 of 7.73

According to the records, this molecule `O=C(Nc1ccc(-c2nc(N3CC4CCC(C3)O4)c3cnn(C4CCC5(CC4)OCCO5)c3n2)cc1)OCCCO` displays pIC50 of 8.40

According to the records, this molecule CNC(=O)Nc1ccc(-c2nc(N3CC4CCC(C3)O4)c3cnn(C4CCC(O)CC4)c3n2)cc1 (stereo not drawn) [Example 107] displays pIC50 of 9.62

According to the records, this molecule `O=C(Nc1ccc(-c2nc(N3CC4CCC(C3)O4)c3cnn(CC(F)(F)F)c3n2)cc1)Nc1cccc(CO)c1` displays pIC50 of 9.23

According to the records, this molecule `CN(C)CCOc1ccc(NC(=O)Nc2ccc(-c3nc(N4CC5CCC(C4)O5)c4cnn(CCF)c4n3)cc2)cc1` displays pIC50 of 9.08

According to the records, this molecule `Cn1ncc2c(N3CC4CCC(C3)O4)nc(-c3ccc(NC(=O)Nc4ccncc4)cc3)nc21` displays pIC50 of 9.74
